Assay: protein stability index of a GFP-peptide fusion (yeast GPS) (PSI 1-4); higher = more stable; sorted into four equal gates, so the index is relative within each strain
Conditions: pdr5∆
protein stability index vs 3: at or above is fulfilled, below is not fulfilled.

[[record]]
sequence_entry = "KNGALVSNILSAFKFIH [YJL039C/NUP192]"
qualitative_label = "not fulfilled"

[[record]]
sequence_entry = "DAENEWNVEKFKKDFEV [RPC40]"
qualitative_label = "not fulfilled"

[[record]]
sequence_entry = "LFQELSKVVDDMPSLRL [GRR1]"
qualitative_label = "not fulfilled"

[[record]]
sequence_entry = "EQQKEELTDKLSALNSE [SMC1]"
qualitative_label = "fulfilled"

[[record]]
sequence_entry = "NVMLNIYPRTVIDIEIH [SKI6]"
qualitative_label = "not fulfilled"

[[record]]
sequence_entry = "FIFQIIEITNSNDLCSQ [SRB8]"
qualitative_label = "not fulfilled"

[[record]]
sequence_entry = "VKIGKFIPHGLKRRQVI [SRB8]"
qualitative_label = "not fulfilled"

[[record]]
sequence_entry = "TANTGTIGKRRTTTNTT [TAF14]"
qualitative_label = "fulfilled"

[[record]]
sequence_entry = "IKEIINASKVISTPIIN [RPO31]"
qualitative_label = "not fulfilled"

[[record]]
sequence_entry = "AETDYVDPKRLAMVIIK [DSN1]"
qualitative_label = "fulfilled"

[[record]]
sequence_entry = "LETDGVNLSEVMTVPGI [RPO21]"
qualitative_label = "fulfilled"

[[record]]
sequence_entry = "NNNNTTTTTTTTNNNNT [SWI1]"
qualitative_label = "not fulfilled"

[[record]]
sequence_entry = "VFSESCSNESFASIPVS [SNU114]"
qualitative_label = "fulfilled"

[[record]]
sequence_entry = "LNVTPSKRPQLGEIPNP [SIR4]"
qualitative_label = "not fulfilled"

[[record]]
sequence_entry = "DHNGVPFPQYPAGMNET [ITC1]"
qualitative_label = "not fulfilled"

[[record]]
sequence_entry = "DVAFADGGKTLRACAAN [YMR129W/POM152]"
qualitative_label = "not fulfilled"

[[record]]
sequence_entry = "MKVEELIIDGFKSYATR [SMC2]"
qualitative_label = "fulfilled"

[[record]]
sequence_entry = "ALSYAALILADSEIEIS [RPP1A]"
qualitative_label = "not fulfilled"

[[record]]
sequence_entry = "KTTPNTASSEASAGSKE [YMR153W/NUP53]"
qualitative_label = "fulfilled"

[[record]]
sequence_entry = "PALESSPVTGDNSPSED [SNF2]"
qualitative_label = "fulfilled"

[[record]]
sequence_entry = "KDFLKAVDKVISGYKKF [RPT1]"
qualitative_label = "fulfilled"

[[record]]
sequence_entry = "NTTVISDKQRRLLAKDA [DIS3]"
qualitative_label = "not fulfilled"

[[record]]
sequence_entry = "RLKFGHRLIATHTNLER [SNF2]"
qualitative_label = "not fulfilled"

[[record]]
sequence_entry = "DKQDGTAKPAFSFGAKP [YJL041W/NSP1]"
qualitative_label = "fulfilled"

[[record]]
sequence_entry = "LSHYIRQCFQDNCCDFK [MED1]"
qualitative_label = "not fulfilled"

[[record]]
sequence_entry = "LEEIRGNPLSIGTLEEI [RPT2]"
qualitative_label = "fulfilled"


###

Experiment: protein stability index of a GFP-peptide fusion (yeast GPS) (PSI 1-4); higher = more stable; sorted into four equal gates, so the index is relative within each strain
Conditions: ubr1∆
Measured protein stability index, listed per entry for reference.
Property: protein stability index

[[record]]
sequence_entry = "SLTPTQSDSAKVEIKKV [PRP28]"
observed_measurement = 3.1

[[record]]
sequence_entry = "SGSQNISEFDSFTDILK [RPN12]"
observed_measurement = 3.03

[[record]]
sequence_entry = "VVLGVEKRATSPLLESD [PUP2]"
observed_measurement = 2.84

[[record]]
sequence_entry = "EDAFNFWFDKLVTKILP [YCG1]"
observed_measurement = 2.94

[[record]]
sequence_entry = "EPEEEKSKREEEAKSVL [ARP9]"
observed_measurement = 3.25

[[record]]
sequence_entry = "VCAKLFGNIQKVVNFWL [RPO21]"
observed_measurement = 1.78

[[record]]
sequence_entry = "VFVGSGKGTGKTAMAEL [BRR2]"
observed_measurement = 3.41

[[record]]
sequence_entry = "IRVAETRGGASALIENN [YJL039C/NUP192]"
observed_measurement = 2.89

[[record]]
sequence_entry = "MKVEELIIDGFKSYATR [SMC2]"
observed_measurement = 3.22

[[record]]
sequence_entry = "EERERKDQYVPEVSALD [RPS17A]"
observed_measurement = 2.82

[[record]]
sequence_entry = "PIKADKDYSQILKEEFP [RPN5]"
observed_measurement = 2.69

[[record]]
sequence_entry = "LKNVNKRAFENFKKFNE [SMC3]"
observed_measurement = 1.88

[[record]]
sequence_entry = "ETRAELSQLCAVPLQIV [RPO21]"
observed_measurement = 2.71

[[record]]
sequence_entry = "EQHNLVKKGPVRLPTKV [RPS20]"
observed_measurement = 2.64

[[record]]
sequence_entry = "LEEIRGNPLSIGTLEEI [RPT2]"
observed_measurement = 3.25

[[record]]
sequence_entry = "YVLYAKIVVLSRTGPVF [RRP43]"
observed_measurement = 1.19

[[record]]
sequence_entry = "PLFIVEDDESLGHKELK [RPB2]"
observed_measurement = 1.8

[[record]]
sequence_entry = "PDSNHLSSETGIKLALD [SRB4]"
observed_measurement = 3.37

[[record]]
sequence_entry = "VFDKDGNYIKTENATEN [LIN1]"
observed_measurement = 3.72

[[record]]
sequence_entry = "SDVLRFLQRVRVWEYRQ [RPL15A]"
observed_measurement = 2.01

[[record]]
sequence_entry = "LDERGHEKIEDEDEDND [RPN4]"
observed_measurement = 3.32

[[record]]
sequence_entry = "SLSDEVMRNEIRITSLQ [SIR4]"
observed_measurement = 2.52

[[record]]
sequence_entry = "EEQDVDMTGDEEQEEEP [RPC19]"
observed_measurement = 2.76

[[record]]
sequence_entry = "NPNTNTNSNNTPLQSQL [PGD1]"
observed_measurement = 2.98

[[record]]
sequence_entry = "IDATLKEELLRDGVLTV [RRP45]"
observed_measurement = 2.04

[[record]]
sequence_entry = "NTLEFIIEQLSIAAERY [YCG1]"
observed_measurement = 2.39

[[record]]
sequence_entry = "TVTLNKNREVVQVSKAG [RRP45]"
observed_measurement = 2.82

[[record]]
sequence_entry = "ILSLEQSSRVVSLSQLL [YCS4]"
observed_measurement = 1.85

[[record]]
sequence_entry = "SAGFETDLRLSTNGLGM [SNU114]"
observed_measurement = 3.13

[[record]]
sequence_entry = "SLLDAEEERRKKRESGV [SNF2]"
observed_measurement = 3.47

[[record]]
sequence_entry = "PTKAAQRARDQDSIDIS [GAL11]"
observed_measurement = 3.22

[[record]]
sequence_entry = "ALYPQEARLRNLTYSSG [RPB2]"
observed_measurement = 2.49

[[record]]
sequence_entry = "ILKRDFELVSDLSYIEF [ECM29]"
observed_measurement = 2.76

[[record]]
sequence_entry = "ESKLKIDPDTKAPNAVV [RPB11]"
observed_measurement = 2.92

[[record]]
sequence_entry = "GTAIGAIGAQSIGEPGT [RPO31]"
observed_measurement = 3.15

[[record]]
sequence_entry = "GNGLVDENKVEAFKSLY [YAR002W/NUP60]"
observed_measurement = 3.3

[[record]]
sequence_entry = "FNRENKVSPADAAKKAL [RPS26A]"
observed_measurement = 3.4

[[record]]
sequence_entry = "SVPEGTIVSNVEEKPGD [RPL2A]"
observed_measurement = 3.39

[[record]]
sequence_entry = "FGYDIPLLDIVLKADRS [YML103C/NUP188]"
observed_measurement = 2.66

[[record]]
sequence_entry = "RRNLRYGDRMKLAKNLQ [RPO31]"
observed_measurement = 3.44

[[record]]
sequence_entry = "LVKIDDLSANQRETMKE [SMC1]"
observed_measurement = 3.45

[[record]]
sequence_entry = "IVPLHSPFLMGHPMTKS [SEC65]"
observed_measurement = 2.79

[[record]]
sequence_entry = "TEIISTLSNGLIASHYG [BRR2]"
observed_measurement = 2.33

[[record]]
sequence_entry = "FEKNTILQQRSKINSTE [MED4]"
observed_measurement = 3.15

[[record]]
sequence_entry = "TLDKPNAEATKEEFSSA [CSE2]"
observed_measurement = 3.13

[[record]]
sequence_entry = "DHGDGILLIDSEIARTY [RPN9]"
observed_measurement = 3.17

[[record]]
sequence_entry = "QKYTKEMIDSHIKEASE [SNF2]"
observed_measurement = 3.02

[[record]]
sequence_entry = "MAPNTSRKQKVIKTLTV [RPL22B]"
observed_measurement = 1.97

[[record]]
sequence_entry = "LGLCCLLDVKLAIDNMY [YCG1]"
observed_measurement = 1.88

[[record]]
sequence_entry = "ADKKDDSESNSEPIDLI [ITC1]"
observed_measurement = 3.35

[[record]]
sequence_entry = "VVFRDPYKYRLREEIFI [RPL2A]"
observed_measurement = 2.81

[[record]]
sequence_entry = "EFIQDSAARGLSLVYEI [ECM29]"
observed_measurement = 3.64

[[record]]
sequence_entry = "ILEDYCYFRDFEYCRID [ISW2]"
observed_measurement = 1.35

[[record]]
sequence_entry = "GVEQLHYTGISQSACRE [SSN3]"
observed_measurement = 2.56

[[record]]
sequence_entry = "HKSDVMSVDIDKKASMI [ASC1]"
observed_measurement = 2.87

[[record]]
sequence_entry = "KYKSNTNNMEKIIEDLR [SMC2]"
observed_measurement = 3.2

[[record]]
sequence_entry = "VLKFTFTGEKPIITGST [MED8]"
observed_measurement = 2.07

[[record]]
sequence_entry = "IKWENAFVSVYSKNNPN [PRP8]"
observed_measurement = 2.61

[[record]]
sequence_entry = "EKVTIAPLVLLSALDHY [RPN8]"
observed_measurement = 1.48

[[record]]
sequence_entry = "RILQQLKLDKIIHVLTT [RGR1]"
observed_measurement = 2.22

[[record]]
sequence_entry = "EVTAGEAQDEASLQQQQ [SNF6]"
observed_measurement = 3.6

